Each entry below carries its recorded half-life.
Experiment: Aqueous Stability (half-life period) at pH 7 and 37 degrees
Type: ADME
Conditions: aqueous solution

N=C(N)NCCC[C@H]1C(=O)N(C(=O)c2ccc(-c3ccccc3)cc2)[C@@H]1C(=O)O	11.1 h

Item N=C(N)NCCC[C@H]1C(=O)N(C(=O)N2CCN(C(=O)c3ccccc3)CC2)[C@@H]1C(=O)O has what recorded half-life?
> 48 h

Item N=C(N)NCCC[C@H]1C(=O)N(C(=O)N2CCN(S(=O)(=O)c3ccccc3)CC2)[C@@H]1C(=O)O has what recorded half-life?
> 48 h

Item COC(=O)N1CCN(C(=O)N2C(=O)[C@H](CCCN=C(N)N)[C@H]2C(=O)O)CC1 has what recorded half-life?
> 48 h

Item CCN(CC)C(=O)N1CCN(C(=O)N2C(=O)[C@H](CCCN=C(N)N)[C@H]2C(=O)O)CC1 has what recorded half-life?
> 48 h

Item CNC(=O)[C@@H]1[C@@H](CCCN=C(N)N)C(=O)N1C(=O)N1CCN(C(=O)OC(C)(C)C)CC1 has what recorded half-life?
31.8 h

Item CC(C)(C)OC(=O)N1CCN(C(=O)N2C(=O)[C@H](CCCN=C(N)N)[C@H]2C(=O)O)CC1 has what recorded half-life?
> 48 h

Item N=C(N)NCCC[C@H]1C(=O)N(C(=O)N2CCN(C(=O)OCCc3ccccc3)CC2)[C@@H]1C(=O)O has what recorded half-life?
> 48 h

Item CC(C)(C)C(=O)N1CCN(C(=O)N2C(=O)[C@H](CCCN=C(N)N)[C@H]2C(=O)O)CC1 has what recorded half-life?
> 48 h

Item N=C(N)NCCC[C@H]1C(=O)N(C(=O)NC2CCCCC2)[C@@H]1C(=O)O has what recorded half-life?
> 48 h

Item N=C(N)NCCC[C@H]1C(=O)N(C(=O)c2cccs2)[C@@H]1C(=O)O has what recorded half-life?
8.7 h

Item N=C(N)NCCC[C@H]1C(=O)N(C(=O)Nc2ccccc2)[C@@H]1C(=O)O (stereo in doubt; 8a) has what recorded half-life?
> 48 h
